The reader will find reported inhibition at 10 µM values listed item by item below.
# testedTarget: UniProt Q96S37
# experimentNotes: Inhibition of URAT1 (unknown origin)-mediated 14C uric acid uptake expressed in HEK293 cells using 14C uric acid as substrate at 10 uM by liquid scintillation counting analysis
# Type: cell-based
Your answer should be a plain number; it is taken to be in %.

Worked cases, inhibition at 10 µM given:
>>> reported("O=C(O)c1ccccc1NC(=O)c1cn(Cc2ccc(Cl)cc2)c2ccccc12")
69.4
>>> reported("O=C(O)c1ccccc1NC(=O)c1cn(Cc2cccc(F)c2)c2ccccc12")
48
>>> reported("O=C(O)c1ccccc1NC(=O)c1c[nH]c2ccccc12")
33.2
>>> reported("O=C(O)c1ccccc1NC(=O)c1cn(Cc2ncccn2)c2ccccc12")
49.9

Given the compound `O=C(O)CSc1nnc(Br)n1-c1ccc(C2CC2)c2ccccc12` , write its reported inhibition at 10 µM. 47

Specify measured inhibition at 10 µM for `N#Cc1ccc2c(c1)c(C(=O)Nc1ncc(C(=O)O)s1)cn2Cc1ccccn1` . 15.9

Quickly give me recorded inhibition at 10 µM for `N#Cc1ccc2c(c1)c(C(=O)Nc1ccccc1C(=O)O)cn2Cc1ccccn1` 60.7

State its inhibition at 10 µM for this compound: `O=C(O)c1ccccc1NC(=O)c1cn(Cc2cccnc2)c2ccccc12` 43.1

Kindly indicate its recorded inhibition at 10 µM. Item: `Cc1ccc2c(C(=O)Nc3ccccc3C(=O)O)cn(Cc3ccccn3)c2c1` 49.1

Return inhibition at 10 µM (reported value) for this compound: `O=C(O)c1ccccc1NC(=O)c1cn(Cc2ccccc2F)c2ccccc12` 40.7

----------
# testedTarget: Solute carrier family 22 member 12 (Homo sapiens, UniProt Q96S37)
# experimentNotes: Inhibition of URAT1 (unknown origin)-mediated 14C uric acid uptake expressed in HEK293 cells using 14C uric acid as substrate at 10 uM by liquid scintillation counting analysis
# Format: cell-based
// values below are reported inhibition at 10 µM
Give the quantity in %, number only.

Would you please look over these solved cases?
>>> reported("O=C(O)c1ccc(NC(=O)c2c[nH]c3ccccc23)cc1")
0.1
>>> reported("O=C(O)c1ccccc1NC(=O)c1cn(C(=O)c2ccccc2)c2ccccc12")
10.9
>>> reported("O=C(O)c1ccccc1NC(=O)c1cn(Cc2cccs2)c2ccccc12")
56.7
>>> reported("N#Cc1ccc2c(c1)c(C(=O)Nc1scnc1C(=O)O)cn2Cc1ccccn1")
48
>>> reported("O=C(O)c1ccccc1NC(=O)c1cn(Cc2ccccn2)c2cc(F)ccc12")
51.6

Moving on to another molecule below.
Provide measured inhibition at 10 µM value, entry: `N#Cc1ccc2c(c1)c(C(=O)Nc1cc[nH]c1C(=O)O)cn2Cc1ccccn1` 51

----------
The entries below come with measured inhibition at 10 µM values attached.
# testedTarget: Solute carrier family 22 member 12 (Homo sapiens, UniProt Q96S37)
# experimentNotes: Inhibition of URAT1 (unknown origin)-mediated 14C uric acid uptake expressed in HEK293 cells using 14C uric acid as substrate at 10 uM by liquid scintillation counting analysis
# Format: cell-based
Hi! Could you send only the number? It should be in %, unit omitted.

Consider the following illustrative entries.
>>> reported("O=C(O)c1ccccc1NC(=O)c1cn(Cc2cccnn2)c2ccccc12")
10.4
>>> reported("COc1ccc(/C=C/C(=O)Nc2ccccc2C(=O)O)cc1OC")
44.9

For the compound `O=C(O)c1ccccc1NC(=O)c1cn(Cc2ccc(F)cc2)c2ccccc12` , give its reported inhibition at 10 µM. 73.4

Item `Cc1ccc2c(c1)c(C(=O)Nc1ccccc1C(=O)O)cn2Cc1ccccn1` : provide inhibition at 10 µM 46.8

Tell me measured inhibition at 10 µM for `N#Cc1ccc2c(C(=O)Nc3ccccc3C(=O)O)cn(Cc3ccccn3)c2c1` please. 65.7

Tell me inhibition at 10 µM reported for `O=C(O)c1ccccc1NC(=O)c1cn(Cc2ccccn2)c2ccccc12` 81.4

Report inhibition at 10 µM for `O=C(O)c1ccccc1NC(=O)c1cn(Cc2ccncc2)c2ccccc12` 68.4

----------
# testedTarget: Solute carrier family 22 member 12 (Homo sapiens)
# experimentNotes: Inhibition of URAT1 (unknown origin)-mediated 14C uric acid uptake expressed in HEK293 cells using 14C uric acid as substrate at 10 uM by liquid scintillation counting analysis
# Format: cell-based
Catalogue of inhibition at 10 µM values
Report the figure in % without appending any unit label.

Answer with reported inhibition at 10 µM of `O=C(O)c1ccccc1NC(=O)c1cn(Cc2ccccc2)c2ccccc12` 41.3

----------
# testedTarget: Solute carrier family 22 member 12 (Homo sapiens, UniProt Q96S37)
# Sequence (Q96S37 whole entry): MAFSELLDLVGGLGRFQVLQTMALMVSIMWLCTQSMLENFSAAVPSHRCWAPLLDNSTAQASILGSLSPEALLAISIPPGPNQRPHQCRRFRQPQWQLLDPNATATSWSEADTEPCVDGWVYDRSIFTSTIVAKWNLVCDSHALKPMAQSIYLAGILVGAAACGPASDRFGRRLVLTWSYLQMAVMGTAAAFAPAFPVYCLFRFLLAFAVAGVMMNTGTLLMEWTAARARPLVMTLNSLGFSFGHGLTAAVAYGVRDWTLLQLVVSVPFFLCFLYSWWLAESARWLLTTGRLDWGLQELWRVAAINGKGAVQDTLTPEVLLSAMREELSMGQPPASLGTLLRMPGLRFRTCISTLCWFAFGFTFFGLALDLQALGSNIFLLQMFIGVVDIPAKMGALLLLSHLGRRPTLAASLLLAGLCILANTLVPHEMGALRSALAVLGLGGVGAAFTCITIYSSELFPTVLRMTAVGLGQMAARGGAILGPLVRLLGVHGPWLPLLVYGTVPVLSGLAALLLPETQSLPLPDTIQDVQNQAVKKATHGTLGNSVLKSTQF
# experimentNotes: Inhibition of URAT1 (unknown origin)-mediated 14C uric acid uptake expressed in HEK293 cells using 14C uric acid as substrate at 10 uM by liquid scintillation counting analysis
# Format: cell-based
Could you label it True if measured inhibition at 10 µM is 50% or higher, and False otherwise?

>>> discretelabel("O=C(O)c1ccccc1NC(=O)c1cn(Cc2cscn2)c2ccccc12")
"True"
>>> discretelabel("Cc1ccc(Cn2cc(C(=O)Nc3ccccc3C(=O)O)c3ccccc32)cc1")
"True"
>>> discretelabel("O=C(O)c1ccccc1NC(=O)c1cn(Cc2cnccn2)c2ccccc12")
"True"
>>> discretelabel("CC(C)(C)c1ccc(Cn2cc(C(=O)Nc3ccccc3C(=O)O)c3ccccc32)cc1")
"False"

Confirm if inhibition at 10 µM reported for the compound `O=C(O)c1ccccc1NC(=O)c1cn(Cc2ccc(Br)cc2)c2ccccc12` is 50% or above. True

Does inhibition at 10 µM meet or surpass 50% for `COc1ccc(Cn2cc(C(=O)Nc3ccccc3C(=O)O)c3ccccc32)cc1` ? True

Given `O=C(O)c1cccc(NC(=O)c2c[nH]c3ccccc23)c1` , state whether its inhibition at 10 µM is at least 50%. False

Value source: ChEMBL document CHEMBL5620380
